Entry source: the RNAGym collection of RNA variant scans (doi:10.1126/science.aae0568)

B1: tRNA (parent)
chain: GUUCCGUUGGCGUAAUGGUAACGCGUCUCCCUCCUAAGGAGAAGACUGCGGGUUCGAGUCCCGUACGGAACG

Variants of: B1
assay: yeast fitness relative to wild type (ratio to wild type); higher = fitter; tRNA-Arg(CCU), competitive growth, 37 C, YPD
Variants at the floor of the assay were thinned out.
assay readout: yeast fitness
// keep it numeric: no unit symbol after the value

>>> endpoint_value("U16A C31A G51A")
0.552
>>> endpoint_value("A15U")
0.885
>>> endpoint_value("G12A G48A A57G G68C")
0.569
>>> endpoint_value("C22G G63A C66U")
0.593

For the next question, use this variant.
Query: Recorded yeast fitness of A40C C46G , please.
Result: 0.975
